assay: blockers of an Epstein-Barr virus protein-peptide interaction – biochemical, fluorescence polarization, dose response (AID 1419); details: cell-free protein-peptide binding, 2 h
Active and inactive are the calls of the source. No rule for the calls is given here.
Field 'call' accepts active, inactive

Worked cases, answers included:
[
  {
    "compound": "Cc1cccn2c(=O)c3cc(C(=O)NCc4ccco4)c(=N)n(CCOCCO)c3nc12",
    "qualitative.label": "active"
  },
  {
    "compound": "CN1CCCc2cc3c(C(F)(F)F)cc(=O)oc3nc21",
    "qualitative.label": "active"
  },
  {
    "compound": "Cc1cc(NC(=O)Cc2cccs2)no1",
    "qualitative.label": "active"
  },
  {
    "compound": "CC(=O)OCCCNc1cc(Sc2nc3ccccc3s2)c2nonc2c1[N+](=O)[O-]",
    "qualitative.label": "active"
  }
]

Please turn your attention to the following entry.
Problem: Returns: the outcome recorded for CN(C)c1ccc(/C=c2/sc3n(c2=O)NC2(c4ccccc4)N(C)C(=O)N(C)C2(c2ccccc2)N=3)cc1 (stereo not given) in this assay.
Solution: inactive

Value source: PubChem BioAssay AID1419
